protocol notes: Critical micellar concentration (CMC) by ANS fluorescence
Type: physicochemical
protocol conditions: qualitative
readout label: CMC compared with the corresponding native/underivatised saponin

CC(=O)OC1C(C)OC(OC2C(C)OC(OC(=O)[C@]34CCC(C)(C)CC3C3=CCC5[C@@]6(C)CC[C@H](OC7OC(C(=O)NCCN8C(=O)C=CC8=O)C(O)C(OC8OCC(O)C(O)C8O)C7OC7OC(CO)C(O)C(O)C7O)[C@@](C)(CO)C6CC[C@@]5(C)[C@]3(C)C[C@H]4O)C(OC3OC(C)C(OC4OCC(O)C(OC5OC(CO)C(O)C(O)C5O)C4O)C(O)C3O)C2O)C(O)C1OC1OCC(O)C(O)C1O (stereo partly drawn) [SO1861-(Glu-AEM)-(Ald-OH)]: lower CMC values
CC(=O)OC1C(C)OC(OC2C(C)OC(OC(=O)[C@]34CCC(C)(C)CC3C3=CCC5[C@@]6(C)CC[C@H](OC7OC(C(=O)NC(C)(CO)CO)C(O)C(OC8OCC(O)C(O)C8O)C7OC7OC(CO)C(O)C(O)C7O)[C@@](C)(CO)C6CC[C@@]5(C)[C@]3(C)C[C@H]4O)C(OC3OC(C)C(OC4OCC(O)C(OC5OC(CO)C(O)C(O)C5O)C4O)C(O)C3O)C2O)C(O)C1OC1OCC(O)C(O)C1O (stereo partly drawn) [SO1861-(Ald-OH)-(Glu-AMPD)]: lower CMC values
